Every entry's value here was drawn from the NIST ThermoML archive (doi:10.1016/j.fluid.2012.11.003).

# ASSAY_COMMENT: activity coefficient (dimensionless); of the first substance listed, at infinite dilution; xn = mol fraction of the nth substance listed
# RUN_PARAMETERS: 353.15 K; 101 kPa; Liquid; dilutor technique; x1 = 0
For each entry below, report its activity coefficient value.
Numbers only.

CCO [ethanol] + CCOS(=O)(=O)[O-].CCn1cc[n+](C)c1: 0.534
CCCO [propan-1-ol] + CCOS(=O)(=O)[O-].CCn1cc[n+](C)c1: 0.803
CO [methanol] + CCOS(=O)(=O)[O-].CCn1cc[n+](C)c1: 0.339
CCC(C)O (stereo not given) [butan-2-ol] + CCOS(=O)(=O)[O-].CCn1cc[n+](C)c1: 1.39
CO [methanol] + CCn1cc[n+](C)c1.O=S(=O)([O-])O: 0.041
CCC(C)O (stereo not given) [butan-2-ol] + CCn1cc[n+](C)c1.COS(=O)(=O)[O-]: 2.24
CC(C)O [propan-2-ol] + CCn1cc[n+](C)c1.O=S(=O)([O-])O: 0.223
CO [methanol] + CCn1cc[n+](C)c1.COS(=O)(=O)[O-]: 0.105

For each entry beneath this line, provide reported activity coefficient.
1. CCC(C)O (stereo not given) [butan-2-ol] + CCn1cc[n+](C)c1.O=S(=O)([O-])O
2. CCCO [propan-1-ol] + CCn1cc[n+](C)c1.COS(=O)(=O)[O-]

**Result**
1: 0.452; 2: 0.705
